Readings of IC50 for the listed molecules
target: rhVAP-1 (Homo sapiens); construct: purchased PeproTech; test: Inhibitory activity against rhVAP-1 enzyme (Biological Example 2); type: biochemical; conditions: Table 2; benzylamine substrate, Amplex Red/HRP
Sequence (Q16853 27-763 limits assumed): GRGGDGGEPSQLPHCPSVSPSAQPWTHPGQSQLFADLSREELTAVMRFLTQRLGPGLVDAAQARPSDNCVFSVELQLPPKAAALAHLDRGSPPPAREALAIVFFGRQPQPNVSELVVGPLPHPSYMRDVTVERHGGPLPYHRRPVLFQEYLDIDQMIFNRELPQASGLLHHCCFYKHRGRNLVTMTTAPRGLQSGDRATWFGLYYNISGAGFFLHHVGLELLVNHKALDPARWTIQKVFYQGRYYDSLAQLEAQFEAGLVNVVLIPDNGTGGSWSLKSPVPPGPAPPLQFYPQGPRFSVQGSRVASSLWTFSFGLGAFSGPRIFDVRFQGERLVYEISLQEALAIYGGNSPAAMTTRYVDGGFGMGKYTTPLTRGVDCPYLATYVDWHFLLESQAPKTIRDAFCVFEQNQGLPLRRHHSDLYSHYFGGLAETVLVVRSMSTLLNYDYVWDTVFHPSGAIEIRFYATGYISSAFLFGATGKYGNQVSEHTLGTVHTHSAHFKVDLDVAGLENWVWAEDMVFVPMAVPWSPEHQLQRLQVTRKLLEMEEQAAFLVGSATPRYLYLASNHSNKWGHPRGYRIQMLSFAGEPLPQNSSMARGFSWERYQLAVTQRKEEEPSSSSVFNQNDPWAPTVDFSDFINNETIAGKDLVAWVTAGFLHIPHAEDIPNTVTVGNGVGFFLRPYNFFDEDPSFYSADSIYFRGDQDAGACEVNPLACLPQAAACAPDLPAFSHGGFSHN
Counter-ions that a name gives are not always drawn.
Numbers only here, please. The scale is nM.

Please review the entries below; each comes with its answer.
>  <MOLECULE>
CC(C)(C)NC(=O)c1ccn(C/C(=C/F)CN)c1

>  <TARGET_DESC>
rhVAP-1 (Homo sapiens)

>  <REPORTED_RESULT>
83

$$$$
>  <MOLECULE>
CC(C)(C)N1CCc2c(cnn2C/C(=C/F)CN)C1=O

>  <TARGET_DESC>
rhVAP-1 (Homo sapiens)

>  <REPORTED_RESULT>
96

$$$$
>  <MOLECULE>
CCn1ccc2nn(C/C(=C/F)CN)cc2c1=O [Compound A28 hydrochloride]

>  <TARGET_DESC>
rhVAP-1 (Homo sapiens)

>  <REPORTED_RESULT>
33

$$$$
>  <MOLECULE>
NC/C(=C\F)Cn1cc2c(n1)CCNC2=O [Compound A23 hydrochloride]

>  <TARGET_DESC>
rhVAP-1 (Homo sapiens)

>  <REPORTED_RESULT>
39

$$$$
>  <MOLECULE>
COCCN1CCc2nn(C/C(=C/F)CN)cc2C1=O [Compound A47 hydrochloride]

>  <TARGET_DESC>
rhVAP-1 (Homo sapiens)

>  <REPORTED_RESULT>
20

$$$$
>  <MOLECULE>
NC/C(=C\F)Cn1ncc2c(=O)n(C3CC3)ccc21 [Compound A44 hydrochloride]

>  <TARGET_DESC>
rhVAP-1 (Homo sapiens)

>  <REPORTED_RESULT>
13

$$$$
>  <MOLECULE>
NC/C(=C\F)Cn1ccc2cc(C(=O)N3CCCC3)ccc21 [Compound C7 hydrochloride]

>  <TARGET_DESC>
rhVAP-1 (Homo sapiens)

>  <REPORTED_RESULT>
96

$$$$
>  <MOLECULE>
CCN1CCc2cn(C/C(=C/F)CN)cc2C1=O

>  <TARGET_DESC>
rhVAP-1 (Homo sapiens)

>  <REPORTED_RESULT>
45

$$$$

The molecule listed as NC/C(=C\F)Cn1cc(C(=O)Nc2ccc(Cl)cc2)cn1 shows IC50 equal to 14

The molecule listed as NC/C(=C\F)Cn1cc2c(n1)CCN(C1CCC1)C2=O [Compound A9 hydrochloride] shows IC50 equal to 37

The molecule listed as CCN1CCc2nn(C/C(=C/F)CN)cc2C1=O [Compound A6 hydrochloride] shows IC50 equal to 23

The molecule listed as CC(C)N1CCc2nn(C/C(=C/F)CN)cc2C1=O [Compound A27 hydrochloride] shows IC50 equal to 112

The molecule listed as CCC(C)(C)N1CCc2nn(C/C(=C/F)CN)cc2C1=O [Compound A49 hydrochloride] shows IC50 equal to 17
